System: P-glycoprotein (P-gp)
ASSAY_NOTES: P-gp transport kinetics
Assay type: in vitro ADME
EXPERIMENTAL_PARAMETERS: not told
READOUT: Km
Param answer (str): number followed by unit.

Recorded result, Cn1cnc2c(F)c(Nc3ccc(Br)cc3Cl)c(C(=O)NOCCO)cc21 , Km: 15.8 µM

###

ASSAY_NOTES: Madin-Darby Canine Kidney II permeability measurement
Assay type: in vitro ADME
EXPERIMENTAL_PARAMETERS: dog, MDCK
READOUT: Papp (nm/s)
# number only, unit nm/s dropped from output

GET /value?item= Cn1cnc2c(F)c(Nc3ccc(Br)cc3Cl)c(C(=O)NOCCO)cc21 &field=Papp returns 377

These measurements were taken from paper PMC9290801.
